- assayed.system: JAK1 (Homo sapiens)
- Sequence (P23458 whole entry, species assumed): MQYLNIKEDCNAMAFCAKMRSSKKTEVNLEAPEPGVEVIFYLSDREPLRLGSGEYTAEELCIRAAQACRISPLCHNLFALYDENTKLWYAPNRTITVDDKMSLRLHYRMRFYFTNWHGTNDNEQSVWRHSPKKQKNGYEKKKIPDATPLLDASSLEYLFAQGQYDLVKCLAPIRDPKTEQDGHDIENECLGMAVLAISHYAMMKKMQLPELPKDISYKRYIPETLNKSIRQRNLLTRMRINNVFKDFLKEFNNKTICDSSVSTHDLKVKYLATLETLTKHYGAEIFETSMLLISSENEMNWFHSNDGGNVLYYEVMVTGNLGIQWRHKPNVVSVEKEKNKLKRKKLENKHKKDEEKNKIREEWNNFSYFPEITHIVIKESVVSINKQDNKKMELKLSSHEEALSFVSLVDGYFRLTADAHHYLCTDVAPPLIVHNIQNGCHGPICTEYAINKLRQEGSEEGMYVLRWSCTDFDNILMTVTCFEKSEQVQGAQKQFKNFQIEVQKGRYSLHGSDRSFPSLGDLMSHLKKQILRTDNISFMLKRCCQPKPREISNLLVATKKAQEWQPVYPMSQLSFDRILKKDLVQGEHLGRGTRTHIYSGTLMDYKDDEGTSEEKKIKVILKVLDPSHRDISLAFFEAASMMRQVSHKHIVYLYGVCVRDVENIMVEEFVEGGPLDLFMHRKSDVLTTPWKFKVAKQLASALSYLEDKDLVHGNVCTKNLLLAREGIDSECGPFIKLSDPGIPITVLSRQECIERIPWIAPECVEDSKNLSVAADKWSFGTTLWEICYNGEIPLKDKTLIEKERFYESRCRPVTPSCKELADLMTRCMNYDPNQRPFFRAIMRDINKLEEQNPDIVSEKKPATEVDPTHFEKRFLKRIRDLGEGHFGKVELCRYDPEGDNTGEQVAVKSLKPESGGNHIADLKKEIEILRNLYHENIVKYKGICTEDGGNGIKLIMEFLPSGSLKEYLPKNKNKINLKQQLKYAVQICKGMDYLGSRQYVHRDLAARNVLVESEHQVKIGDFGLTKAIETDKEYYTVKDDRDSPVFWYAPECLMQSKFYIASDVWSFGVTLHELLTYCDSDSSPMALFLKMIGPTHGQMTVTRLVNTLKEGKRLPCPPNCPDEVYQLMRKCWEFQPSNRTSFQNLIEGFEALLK
- measurement.description: Caliper Mobility Shift Assay, kinase inhibition
- Format: biochemical
- test.conditions: ATP by Km value
Record form. Attribute: IC50. Fill in for each entry.
Numbers only, in nM.

CCOc1ccc2c(-c3ncnc4[nH]ccc34)cn(C3(CC#N)CN(S(=O)(=O)CC)C3)c2c1 = 25.4
CCCS(=O)(=O)N1CC(CC#N)(n2cc(-c3ncnc4[nH]ccc34)c3c(F)cc(F)cc32)C1 = 13.3
CCS(=O)(=O)N1CC(CC#N)(n2cc(-c3ncnc4[nH]ccc34)c3ccc(CC(F)(F)F)cc32)C1 = 5.4

Turning now to a further molecule:
State recorded IC50 with JAK1 (Homo sapiens), entry CCS(=O)(=O)N1CC(CC#N)(n2cc(-c3ncnc4[nH]ccc34)c3cc(C(F)(F)F)ccc32)C1 , no comment. 7.9

* * *

- assayed.system: JAK3 (Homo sapiens)
- Sequence (P52333 whole entry, species assumed): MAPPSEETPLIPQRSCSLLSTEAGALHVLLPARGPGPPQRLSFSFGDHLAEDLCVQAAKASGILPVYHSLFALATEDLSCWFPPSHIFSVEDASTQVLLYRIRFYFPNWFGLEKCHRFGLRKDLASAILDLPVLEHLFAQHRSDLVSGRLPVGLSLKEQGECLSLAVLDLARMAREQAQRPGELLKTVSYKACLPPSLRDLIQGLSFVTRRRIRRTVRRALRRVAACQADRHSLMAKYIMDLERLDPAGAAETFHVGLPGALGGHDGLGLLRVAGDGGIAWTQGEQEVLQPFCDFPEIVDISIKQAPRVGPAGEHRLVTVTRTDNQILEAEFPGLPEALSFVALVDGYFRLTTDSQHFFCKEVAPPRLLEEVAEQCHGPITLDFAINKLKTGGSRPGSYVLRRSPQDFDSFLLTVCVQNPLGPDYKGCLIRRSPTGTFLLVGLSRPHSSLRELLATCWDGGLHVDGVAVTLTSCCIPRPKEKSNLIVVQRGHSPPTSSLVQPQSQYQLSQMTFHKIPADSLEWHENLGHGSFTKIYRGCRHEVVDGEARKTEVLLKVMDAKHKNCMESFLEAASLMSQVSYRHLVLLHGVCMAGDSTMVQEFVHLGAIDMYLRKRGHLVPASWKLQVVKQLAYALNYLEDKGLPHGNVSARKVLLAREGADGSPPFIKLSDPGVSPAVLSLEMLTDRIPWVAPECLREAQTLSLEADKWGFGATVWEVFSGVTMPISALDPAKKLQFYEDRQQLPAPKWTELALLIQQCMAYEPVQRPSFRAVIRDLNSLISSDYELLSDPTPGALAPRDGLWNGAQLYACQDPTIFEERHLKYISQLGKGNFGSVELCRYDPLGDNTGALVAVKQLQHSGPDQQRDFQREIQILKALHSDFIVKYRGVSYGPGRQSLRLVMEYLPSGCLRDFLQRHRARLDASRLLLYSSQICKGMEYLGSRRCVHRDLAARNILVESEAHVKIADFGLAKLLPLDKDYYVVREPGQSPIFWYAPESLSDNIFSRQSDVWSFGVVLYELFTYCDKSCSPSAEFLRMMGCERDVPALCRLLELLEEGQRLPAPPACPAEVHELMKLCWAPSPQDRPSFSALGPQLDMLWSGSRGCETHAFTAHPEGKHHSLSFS
- measurement.description: Caliper Mobility Shift Assay, kinase inhibition
- Assay type: biochemical
- test.conditions: ATP by Km value
property.label: IC50 (nM)
One number for each entry, in nM.

CC(C)S(=O)(=O)N1CC(CC#N)(n2cc(-c3ncnc4[nH]ccc34)c3ccc(Cl)cc32)C1 = 64

Provide IC50 for all items below, preserving their order.
1. CS(=O)(=O)N1CC(CC#N)(n2cc(-c3ncnc4[nH]ccc34)c3ccc(F)c(F)c32)C1
2. CCS(=O)(=O)N1CC(CC#N)(n2cc(-c3ncnc4[nH]ccc34)c3ccc(Cl)cc32)C1
3. CCCCS(=O)(=O)N1CC(CC#N)(n2cc(-c3ncnc4[nH]ccc34)c3ccccc32)C1

[124, 34, 200]

* * *

- Test system: Jurkat cells
- measurement.description: Inhibition of cell proliferation of human lymphocytoma (CCK-8)
- Format: cell-based
- test.conditions: 48 h, CCK-8, 450 nm absorption
Record form. Attribute: pIC50. Fill in for each entry.
Give bare numbers, as −log10 of the molar value.

CCS(=O)(=O)N1CC(CC#N)(n2cc(-c3ncnc4[nH]ccc34)c3ccc(F)cc32)C1 = 6.65
CCCCS(=O)(=O)N1CC(CC#N)(n2cc(-c3ncnc4[nH]ccc34)c3ccccc32)C1 = 6.34
CCS(=O)(=O)N1CC(CC#N)(n2cc(-c3ncnc4[nH]ccc34)c3cc(OC)ccc32)C1 = 6.87

State recorded pIC50 with Jurkat cells, entry CN(C)S(=O)(=O)N1CC(CC#N)(n2cc(-c3ncnc4[nH]ccc34)c3ccccc32)C1 , no comment. 6.91
